system.tested: Neu5Ac(a2-3)Gal(b1-3)GalNAc(b1-4)[Neu5Ac(a2-8)Neu5Ac(a2-3)]Gal(b1-4)Glc
procedure.text: glycan array binding signal (z-score within array); higher = stronger binding
condition: glycan notation: IUPAC condensed, linker removed
The entries come from a sample that favours the strongest signals as a whole.
glycan array binding signal (z-score) for assorted binders
Number, no unit, nothing else.

Solved entries (count: 3):
binder	measured.parameter	test.result
RobpsCRA (Robinia pseudoacacia) (protein) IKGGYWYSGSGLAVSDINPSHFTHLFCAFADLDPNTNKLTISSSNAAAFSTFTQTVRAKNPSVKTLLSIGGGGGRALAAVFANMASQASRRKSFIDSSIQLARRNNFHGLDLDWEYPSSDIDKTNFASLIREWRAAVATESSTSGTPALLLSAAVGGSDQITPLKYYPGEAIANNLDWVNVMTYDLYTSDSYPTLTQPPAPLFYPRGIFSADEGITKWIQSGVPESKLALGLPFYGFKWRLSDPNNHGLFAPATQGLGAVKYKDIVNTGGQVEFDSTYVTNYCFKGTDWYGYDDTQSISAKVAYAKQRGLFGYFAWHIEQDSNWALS	glycan array binding signal (z-score)	-0.829
LFA (Limax flavus) (protein) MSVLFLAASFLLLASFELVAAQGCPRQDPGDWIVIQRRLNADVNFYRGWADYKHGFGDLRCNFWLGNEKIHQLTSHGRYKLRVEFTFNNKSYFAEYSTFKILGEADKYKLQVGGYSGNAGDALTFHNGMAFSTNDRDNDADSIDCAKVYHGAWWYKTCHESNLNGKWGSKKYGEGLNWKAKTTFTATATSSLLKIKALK	glycan array binding signal (z-score)	-0.184
Threefoil (Haloarcula marismortui) (protein) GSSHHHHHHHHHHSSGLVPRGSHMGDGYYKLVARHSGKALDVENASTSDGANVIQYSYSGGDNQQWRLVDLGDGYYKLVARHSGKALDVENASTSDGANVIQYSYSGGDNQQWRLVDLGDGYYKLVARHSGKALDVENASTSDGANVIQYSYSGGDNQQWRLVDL	glycan array binding signal (z-score)	-0.245

Below: the item to evaluate.
// query Can you share its glycan array binding signal (z-score)? I mean this binder: SP16663B-bot-321-25-321 (Bacteroides ovatus) (protein) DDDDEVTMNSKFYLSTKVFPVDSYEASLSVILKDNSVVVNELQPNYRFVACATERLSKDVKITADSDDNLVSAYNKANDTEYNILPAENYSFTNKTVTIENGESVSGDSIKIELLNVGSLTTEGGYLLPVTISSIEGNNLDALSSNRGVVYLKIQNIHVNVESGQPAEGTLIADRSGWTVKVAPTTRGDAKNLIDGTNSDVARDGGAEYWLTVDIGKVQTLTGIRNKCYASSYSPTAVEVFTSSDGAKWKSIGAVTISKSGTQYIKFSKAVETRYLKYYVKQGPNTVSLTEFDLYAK
// result 0.469
